Reported self-cleavage kobs at 10000 uM GlcN6P values for a set of variants
B1: glmS ribozyme (parent)
chain: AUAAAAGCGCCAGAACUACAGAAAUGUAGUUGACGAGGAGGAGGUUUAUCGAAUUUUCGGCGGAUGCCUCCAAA

- Variants of: B1
- Procedure Text: self-cleavage kobs at 10000 uM GlcN6P; higher = faster cleavage; RNA array
- Cond: with glucosamine-6-phosphate
Fewer inactive variants are shown than the library holds.

Variant Notation	Display Unit	Result Qualifier	self-cleavage kobs at 10000 uM GlcN6P
U31G U65C	s⁻¹	=	0.000136
C16A A53G	s⁻¹	=	0.0017
G44C U57C	s⁻¹	<	1e-05
C11U A12G A15U	s⁻¹	=	0.000193
A39U A42U	s⁻¹	=	0.00529
A6G A48U G66U U69C	s⁻¹	<	1e-05
A33G C58U C67U	s⁻¹	<	1e-05
G32U	s⁻¹	=	0.00104
G40C C71A	s⁻¹	=	0.00527
A53G U69C	s⁻¹	=	0.00674
A39U G62U	s⁻¹	<	1e-05
G13C G32C	s⁻¹	=	0.000534
A52U C58U	s⁻¹	<	1e-05
C34A A64U	s⁻¹	<	1e-05
U49C A52U	s⁻¹	<	1e-05
C34G G37C	s⁻¹	<	1e-05
C8G U46C	s⁻¹	<	1e-05
G7U G13U G63U	s⁻¹	<	1e-05
G63A	s⁻¹	<	1e-05
A15C G32U A42U	s⁻¹	<	1e-05
G66C C68U	s⁻¹	=	0.000173
G40U C61G	s⁻¹	<	1e-05

These measurements were taken from the supplement of paper PMC7125110.
